System: panel of human cell lines
Test: In vitro proliferation assay, Cell Titer Glo, two doubling times, 298 cell lines
Type: cell-based
Conditions: Homo sapiens, SNU-423, SNU-423 (liver, pleomorphic hepatocellular carcinoma); read-out: ABS_IC50_VALUE
reported metric: IC50 (µM)
Return type: number; implicit unit µM.

Query :: Which IC50 value is on record for O=c1[nH]ccc2cc(F)c(NS(=O)(=O)c3ccc(N4CC[C@@H](O)C4)s3)cc12 [LSN3213128] ?
Result :: 21.7

* * *

Tested on: panel of human cell lines
Assay: In vitro proliferation assay, Cell Titer Glo, two doubling times, 298 cell lines
Assay type: cell-based
Conditions: Homo sapiens, HCC1419, HCC1419, breast; read-out: ABS_IC50_VALUE
reported metric: IC50 (µM)
Return type: number; implicit unit µM.

Query :: # returns recorded IC50 (system: panel of human cell lines) for O=c1[nH]ccc2cc(F)c(NS(=O)(=O)c3ccc(N4CC[C@@H](O)C4)s3)cc12
Result :: 10.4
